test system: SW 1573; experiment: relative viability (nuclei count vs DMSO), 5 days (fraction); higher = more cells survive; settings: first compound 8 µM
Group membership follows relative viability per the scheme lower segment = under 0.3, middle segment = from 0.3 up to 0.7, upper segment = 0.7 and over

INSERT INTO measurements (compound, class_name) VALUES
  ('C=C1C(=O)O[C@@H](CCCCCCCC)[C@@H]1C(=O)O [C-75] + Nc1ncn([C@H]2C[C@H](O)[C@@H](CO)O2)c(=O)n1 [Decitabine] (partner 2 µM)', 'middle segment'),
  ('C=C1C(=O)O[C@@H](CCCCCCCC)[C@@H]1C(=O)O [C-75] + CCNC(=O)c1noc(-c2cc(C(C)C)c(O)cc2O)c1-c1ccc(CN2CCOCC2)cc1 [Luminespib] (partner 0.01 µM)', 'lower segment'),
  ('C=C1C(=O)O[C@@H](CCCCCCCC)[C@@H]1C(=O)O [C-75] + CC1(C)CCC(c2ccc(Cl)cc2)=C(CN2CCN(c3ccc(C(=O)NS(=O)(=O)c4ccc(N[C@H](CCN5CCOCC5)CSc5ccccc5)c(S(=O)(=O)C(F)(F)F)c4)cc3)CC2)C1 [Navitoclax] (partner 0.5 µM)', 'upper segment'),
  ('C=C1C(=O)O[C@@H](CCCCCCCC)[C@@H]1C(=O)O [C-75] + O=C(c1cc(Cc2n[nH]c(=O)c3ccccc23)ccc1F)N1CCN(C(=O)C2CC2)CC1 [Olaparib] (partner 8 µM)', 'lower segment'),
  ('C=C1C(=O)O[C@@H](CCCCCCCC)[C@@H]1C(=O)O [C-75] + COc1cc2c(Oc3ccc(NC(=O)C4(C(=O)Nc5ccc(F)cc5)CC4)cc3F)ccnc2cc1OCCCN1CCOCC1 [Foretinib] (partner 0.25 µM)', 'upper segment'),
  ('C=C1C(=O)O[C@@H](CCCCCCCC)[C@@H]1C(=O)O [C-75] + COc1cccc2cc(-c3nc([C@H]4CC[C@H](C(=O)O)CC4)n4ncnc(N)c34)[nH]c12 [OSI-027] (partner 0.5 µM)', 'middle segment'),
  ('C=C1C(=O)O[C@@H](CCCCCCCC)[C@@H]1C(=O)O [C-75] + Cc1nc(NC(=O)N2CCC[C@H]2C(N)=O)sc1-c1ccnc(C(C)(C)C(F)(F)F)c1 [Alpelisib] (partner 2 µM)', 'middle segment'),
  ('C=C1C(=O)O[C@@H](CCCCCCCC)[C@@H]1C(=O)O [C-75] + O=C(CCCCCCC(=O)Nc1ccccc1)NO [Vorinostat] (partner 1 µM)', 'middle segment');
